# Tested on: Adenosine receptor A3 (Homo sapiens)
# Sequence (P0DMS8 whole entry): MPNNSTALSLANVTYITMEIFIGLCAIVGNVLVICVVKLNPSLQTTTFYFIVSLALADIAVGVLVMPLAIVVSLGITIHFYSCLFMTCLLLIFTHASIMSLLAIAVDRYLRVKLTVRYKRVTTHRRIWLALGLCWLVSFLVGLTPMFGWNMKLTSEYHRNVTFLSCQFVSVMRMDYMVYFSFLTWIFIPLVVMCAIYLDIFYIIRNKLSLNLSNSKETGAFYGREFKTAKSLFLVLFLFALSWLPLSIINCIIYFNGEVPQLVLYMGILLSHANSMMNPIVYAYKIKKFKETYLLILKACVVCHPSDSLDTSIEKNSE
# Protocol description: Antagonist activity at human cloned adenosine A3 receptor expressed in CHO cells assessed as inhibition of Cl-IB-MECA-inhibited [3H]cAMP production by scintillation counting

| Structure as smiles | IC50, µM |
| --- | --- |
| O=c1[nH]cnc2cn(-c3ccccc3)nc12 | 0.725 |
| Cc1nc2cn(-c3ccccc3)nc2c(=O)[nH]1 | 0.087 |
| COc1ccc(-n2cc3nc(C)[nH]c(=O)c3n2)cc1 | 0.0052 |
| Cc1ccc(-n2cc3nc(C)[nH]c(=O)c3n2)cc1 | 0.046 |
| COc1ccc(-n2cc3nc(Cc4ccccc4)[nH]c(=O)c3n2)cc1 | 0.85 |
| CCc1nc2cn(-c3ccc(OC)cc3)nc2c(=O)[nH]1 | 0.063 |
| CCc1nc2cn(-c3ccccc3)nc2c(=O)[nH]1 | 0.245 |
| COc1ccc(-n2cc3nc[nH]c(=O)c3n2)cc1 | 0.27 |
| Cc1cccc(-n2cc3nc(C)[nH]c(=O)c3n2)c1 | 0.354 |
